Target: Neu5Ac(a2-3)Gal(b1-3)[Neu5Ac(a2-6)]GalNAc
Assay: glycan array binding signal (z-score within array); higher = stronger binding
Conditions: glycan notation: IUPAC condensed, linker removed
The full list was thinned out, with the strongest signals kept by preference.
Outcome label depends on glycan array binding signal (z-score) relative to 1: at/above gives TRUE, below gives FALSE.

# binder, assigned class
measured = [
    ("PA-IL (Pseudomonas aeruginosa) (protein) AWKGEVLANNEAGQVTSIIYNPGDVITIVAAGWASYGPTQKWGPQGDREHPDQGLICHDAFCGALVMKIGNSGTIPVNTGLFRWVAPNNVQGAITLIYNDVPGTYGNNSGSFSVNIGKDQS", "FALSE"),
    ("BC2L-A (Burkholderia cenocepacia), Q1BKJ8_BURCA (protein) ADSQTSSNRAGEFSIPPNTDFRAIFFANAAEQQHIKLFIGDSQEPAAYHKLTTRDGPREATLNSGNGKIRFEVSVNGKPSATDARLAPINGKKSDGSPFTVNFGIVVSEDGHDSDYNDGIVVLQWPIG", "FALSE"),
    ("SpnanA (Streptococcus pneumoniae), P62575 (protein) MVIEKEDVETNASNGQRVDLSSELDKLKKLENATVHMEFKPDAKAPAFYNLFSVSSATKKDEYFTMAVYNNTATLEGRGSDGKQFYNNYNDAPLKVKPGQWNSVTFTVEKPTAELPKGRVRLYVNGVLSRTSLRSGNFIKDMPDVTHVQIGATKRANNTVWGSNLQIRNLTVYNRALTPEEVQKRS", "TRUE"),
    ("BC2LB (Burholderia cenocepacia), B4EH85_BURCJ (protein) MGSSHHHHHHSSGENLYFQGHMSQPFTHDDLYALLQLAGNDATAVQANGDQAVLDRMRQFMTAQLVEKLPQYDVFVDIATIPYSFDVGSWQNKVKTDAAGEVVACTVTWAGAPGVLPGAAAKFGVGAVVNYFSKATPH", "TRUE"),
    ("RbmA (Vibrio cholerae), A0A2H4NFB8 (protein) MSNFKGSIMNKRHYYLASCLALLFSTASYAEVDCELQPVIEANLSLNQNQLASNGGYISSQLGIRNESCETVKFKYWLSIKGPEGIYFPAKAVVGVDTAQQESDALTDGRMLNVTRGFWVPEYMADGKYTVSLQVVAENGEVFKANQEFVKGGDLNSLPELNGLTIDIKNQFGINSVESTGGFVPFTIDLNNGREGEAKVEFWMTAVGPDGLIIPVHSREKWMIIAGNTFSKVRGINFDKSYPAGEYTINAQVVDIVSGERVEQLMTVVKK", "FALSE"),
    ("F4 (Escherichia coli), A0A6L9DDF0 (protein) MKKTLIALALAASAVSGMAHAWTSGDFNGTVDIGGSIDATNYRQKWEWEVGTGLNGFYNALSELTNNDTKLTITVTGNKPILLGRTKEAFVTPTAGGWGGIPQIAFTDYKGAPVELKNPDGETNKGLAYFVLPMKNADGTEAGSVRVNASYAGAVVEKTSDSSAKLFSAYAGEVIRIFNGGLPVNVTQSELQSGVAAADRTALFGSLGKADLVAQFQAVIPGATVTDGTSSEHCTMRLLASAAYALGIADGQTIEATFNQAVTTSTQWSAPLNVAITYY", "FALSE"),
    ("3FTT (Staphylococcus aureus), Q5HCZ5 (protein) MTEKEKMLAEKWYDANFDQYLINERARAKDICFELNHTRPSATNKRKELIDQLFQTTTDNVSISIPFDTDYGWNVKLGKNVYVNTNCYFMDGGQITIGDNVFIGPNCGFYTATHPLNFHHRNEGFEKAGPIHIGSNTWFGGHVAVLPGVTIGEGSVIGAGSVVTKDIPPHSLAVGNPCKVVRKIDNDLPSETLNDETIK", "FALSE"),
    ("Spy 2007 (Streptococcus pyogenes), Q99XV3 (protein) MKKGFFLMAMVVSLVMIAGCDKSANPKQPTQGMSVVTSFYPMYAMTKEVSGDLNDVRMIQSGAGIHSFEPSVNDVAAIYDADLFVYHSHTLEAWARDLDPNLKKSKVDVFEASKPLTLDRVKGLEDMEVTQGIDPATLYDPHTWTDPVLAGEEAVNIAKELGRLDPKHKDSYTKNAKAFKKEAEQLTEEYTQKFKKVRSKTFVTQHTAFSYLAKRFGLKQLGISGISPEQEPSPRQLKEIQDFVKEYNVKTIFAEDNVNPKIAHAIAKSTGAKVKTLSPLEAAPSGNKTYLENLRANLEVLYQQLK", "TRUE"),
    ("Eosinophil-derived neurotoxin (EDN) (Homo sapiens), P10153 (protein) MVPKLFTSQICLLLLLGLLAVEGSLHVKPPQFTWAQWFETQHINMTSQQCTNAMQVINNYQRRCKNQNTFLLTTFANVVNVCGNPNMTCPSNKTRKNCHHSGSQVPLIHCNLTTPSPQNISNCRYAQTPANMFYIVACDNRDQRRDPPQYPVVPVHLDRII", "FALSE"),
]

Data provenance is the supplement of paper PMC8728848.
